# protocol-text: NCI Yeast Anticancer Drug Screen. Data for the rad50 strain (AID 155);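 also: 0% = growth of vehicle-only cultures of the same strain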
# conditions: S. cerevisiae rad50 strain growth inhibition; at 50.0 µM; stronger effect = higher value
# Method: Growth inhibition of yeast strains with defined genetic alterations is measured as a screen for potential anti-cancer activity. Selected strains with alterations in DNA damage repair or cell cycle control were exposed to compounds and growth inhibition was measured relative to vehicle treated controls. The strain used in this assay is rad50
The panel holds about 79,000 compounds, 15% with a hit somewhere; the sample as a whole holds those more often.
Below, each entry is listed with its recorded growth inhibition.
recorded-endpoint: growth inhibition (%)

INSERT INTO assay_data (compound, value) VALUES
  ('O=C1CCC(=O)N1c1ccc([As](=O)(O)O)cc1', -2.55),
  ('CN(C)P1(N(C)C)=NP(c2ccccc2)(c2ccccc2)=NP(N(C)C)(N(C)C)=N1', 13.3),
  ('NP(=O)(OCCC(OCc1ccccc1)OCc1ccccc1)N(CCCl)CCCl (centres undefined)', 54.6),
  ('CCC1CC[N-]CC1.CCC1CC[N-]CC1.CCC1CC[N-]CC1.CCC1CC[N-]CC1.N#C[S-].N#C[S-].[Co]', 23.1),
  ('C[C@@]1(C(=O)c2ccccc2)N(c2ccccc2)[C@@]1(C)C(=O)c1ccccc1', 8.9),
  ('N#Cc1ccc(Cc2ccccn2)cc1Cl', -1.55),
  ('O=C1C=CC(=O)N1c1ccccc1Cl (tested in a mixture with another compound)', 20.2),
  ('CC(=O)Nc1ccc2c(c1)C(=O)c1cc(NC(C)=O)ccc1-2', 24.4),
  ('NC(CCC(=O)NC(CSc1ccc([N+](=O)[O-])cc1[N+](=O)[O-])C(=O)NCC(=O)O)C(=O)O (centres undefined)', 0.05),
  ('CCCCC1(CCO)C(=O)NC(=O)NC1=O', -12.1),
  ('CC12CCC(OC3OC(CO)C(O)C(O)C3O)C=C1CCC1C2CCC2(C)C(c3ccc(=O)oc3)CCC12 (centres undefined)', 62.5),
  ('Oc1ccccc1C=NC1CCCCC1.Oc1ccccc1C=NC1CCCCC1.[Ni+2]', 38.6),
  ('O=C1C(=C([O-])c2ccccc2)C(=O)c2ccccc21.O=C1C(=C([O-])c2ccccc2)C(=O)c2ccccc21.[Fe+2]', 19.4),
  ('CSC(=S)N(C)c1nc(=[N+](C)C)ss1', -12.8);

---

# protocol-text: NCI Yeast Anticancer Drug Screen. Data for the mec2-1 strain (AID 157)
# conditions: S. cerevisiae mec2-1 strain, at 50.0 µM, stronger effect = higher value
About 79,000 compounds went through this panel and 15% of them were active in at least one assay; those are over-represented in the sample as a whole.
recorded-endpoint: growth inhibition (%)

INSERT INTO assay_data (compound, value) VALUES
  ('O=C(O)C1C2c3ccccc3C(c3ccccc32)C1C(=O)NCC1CC1 (stereo not drawn)', 7.55),
  ('[Cl][Hg][c]1cccs1', 99.8),
  ('O=C1C(Br)=CC2(C=C1Br)CCN=c1c(O)c3c(c(O)c12)=NC=N3', 15.7),
  ('COc1cc(C2c3cc4c(cc3OC(C)(O)C2C)OCO4)cc(OC)c1OC (stereo not drawn)', -1.15),
  ('CC(C)(C)NP(=O)(NC(C)(C)C)NC(C)(C)C', -9.6),
  ('CCOC(=O)OC1(c2ccccc2)CCN(C)CC1', 5.75),
  ('Cn1c(O)c(C=N)c(=O)[nH]c1=O', 3.35),
  ('CSC(=S)NNC(=O)c1cccc(S(=O)(=O)F)c1', -8.8),
  ('C/C=C/C(=O)O', -4.65),
  ('COS(=O)(=O)c1ccc(C)cc1', -1.85),
  ('CC(=O)Nc1ccc([As](=O)(O)O)cc1[N+](=O)[O-]', -12.3),
  ('CSc1nc2cc(Cl)ccc2c2c1C=NCCN2', 19.2),
  ('O=P1(N(CCCl)CCCl)Oc2ccc(Cl)cc2Sc2c(ccc(Cl)c2Cl)O1 (stereo not drawn)', 7.9),
  ('O=[N+]([O-])c1ccc(Cl)c(OCCCOc2ccc(S(=O)(=O)F)cc2)c1', -6.9),
  ('O=[N+]([O-])c1ccccc1CBr', 34.5),
  ('O=S(OO)c1cc(Cl)c(O)c(Cl)c1 (stereo not drawn)', -24.1),
  ('CCCCCCCNC(c1ccccc1)C(O)c1ccccc1 (stereo not drawn)', 10.4),
  ('Cc1c([As](=O)(O)O)ccc2nc3c(C)c([As](=O)(O)O)ccc3nc12', 1.25),
  ('c1ccc2c(c1)O[As](O[As]1Oc3ccccc3O1)O2', 4.75),
  ('CC1(C)N=C(N)N=C(N)N1c1ccc(OCCCOc2ccc(S(=O)(=O)F)cc2)cc1', 72.8),
  ('COc1cccc2c1C(=O)c1c(O)c3c(c(O)c1C2=O)C[C@@](O)(C(=O)CO)C[C@@H]3OC1CC(N2CCOCC2C#N)C(O)C(C)O1 (stereo partly drawn)', 91.2),
  ('Nc1ccc(Oc2ccc(N)cc2)cc1', 10),
  ('CCCCCCCCCCP(=O)(O)O', -27.4),
  ('CN(C)C(=S)Oc1ccc(Cl)cc1S(=O)(=O)F', 14.2),
  ('COC(=O)c1ccccc1NC(C)=O', -9.25),
  ('CCc1ccc([N+](=O)[O-])cc1', -12),
  ('CC(C)CC(C)OC(=O)Cc1ccccc1 (stereo not drawn)', 14.5),
  ('O=c1[nH]cc([N+](=O)[O-])cc1[N+](=O)[O-]', -16.6),
  ('O=C(CBr)OCCOC(=O)CBr', 18.4),
  ('CN1C2CCC1CC(O)(c1ccc(Cl)cc1)C2 (stereo not drawn)', 16.4),
  ('FC(F)(F)[S-].FC(F)(F)[S-].[C-]#[O+].[C-]#[O+].[C-]#[O+].[C-]#[O+].[C-]#[O+].[C-]#[O+].[C-]#[O+].[C-]#[O+].[Mn].[Mn]', 99.6),
  ('COc1ccc(OP2OCC(C)O2)cc1 (stereo not drawn)', -46.8),
  ('CC(=O)CC(C)=O.CC(=O)CC(C)=O.[O]=[V]', -58),
  ('COP1(=S)OCC2CCC[C@@H]2O1 (stereo partly drawn)', -26.4),
  ('NNC(=O)CCC(N)C(=O)O (stereo not drawn)', -18.4),
  ('CCCCC[CH2][Sn](=[O])[CH2]CCCCC', 3.35),
  ('CCC1(CC)C(=O)NC(=NCCCC(N)C(=O)O)NC1=O (stereo not drawn)', -3.05),
  ('O=C(OC12CCN(CC1)CC2)c1ccccc1', 8.6),
  ('O=C(Oc1cc(Cl)c(S(=O)(=O)F)cc1Cl)c1ccc([N+](=O)[O-])cc1', 86),
  ('[C-]#[O+].[C-]#[O+].[C-]#[O+].[W].c1ccc([PH+](CC[PH+](c2ccccc2)c2ccccc2)CC[PH+](c2ccccc2)c2ccccc2)cc1', -18.7),
  ('O=c1n(CC2CS2)c2ccccc2n1CC1CS1 (stereo not drawn)', -0.6),
  ('CC(C)CCCC(C)CCC1C(=O)NC(=S)NC1=O (stereo not drawn)', 10.2),
  ('COC1=CC=C2[C@@H]3Cc4ccc(OC)c5c4[C@]2(CCN3CCCl)C1O5 (stereo partly drawn)', -5.35);

Data credit: PubChem BioAssay (NCI)
